- Test system: K4 kissing-loop RNA reporter;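 further: bound reporter read as fluorescence of individual clusters on recovered sequencing chips by microscopy, with normalized cluster intensities fitted with a binding model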
- PROCEDURE_TEXT: apparent KD of K4 kissing-loop reporter; higher = weaker reporter binding
- CONDITION_DETAILS: Eterna round: R107; input ligand: FMN 200 uM
Assign condition met to entries whose apparent KD of K4 kissing-loop reporter meets or exceeds 200 nM; assign condition not met to the rest.

Before answering, review these 10 worked examples.
• ACGUCCGGAUUAAUCGUGGGCAUGGUCGAUACCAGAUCUUUAAUGAUCCCUUGGCAGCGACAUGAGUGAUGUUCAUGUGCGAUGA [KL-XTheo-A8 #analogue] = condition not met
• GUAUCGCUAGGAGGAUAUUUCAAUUCGCCUAUAAAUGGUGAUACGGAGUGAUGUUCCGAUUUACGGAAAGAAGGCCUAGUGAUAC [FMN B 8] = condition not met
• GAUCAUAGCACGGCCGCCACUGAUAUGCCGUGCUAUACGAGUGAUGUUCGUAAUUAUACGGGUAUCAGGACCGGGUGCAACGGUA [Tryp B SS t2] = condition not met
• AGCAAUAUCACGGCCGCCACUGAAUAUUGUUUUUAUAUUUAGAAAUCUUGCCAGUGAUGUUGGUUCAGGACCGGGUGAGUUAAUA [JR_SSTryptoB_Sub005] = condition met
• GCAGGCGUAAAAGGAUAUCAGGCUCUCUAGACACGAGUGAUGUUUGUGUAGGUAACGUAAUAGGCAUGAGAAGGUUUCACUUAAA [theeternabot_sameState_KL_FMN_B_49] = condition met
• UGUUACCAGUGAUGUUGGGAGAUGAAGAGCAAGGAUAUGUGAUAGUACAGAAGGUGCGUCGUCGUGAUUAUCACGCUCUGUGUUA [theeternabot_exclusion_KL_FMN_A_8] = condition met
• GCGCGUCAUGUCAGCGGUGACUCUGUCGAUACCAGCGCCGCAAGGCGCCCUUGGCAGCGACGCGCUGGAGUGAUGUUCCAGCGUG [#2 Exclusion - Theophylline A Attempt #13 (HarryS)] = condition not met
• UCACUCAUGUGAAGGAGCGUGAGAAGACAUGAGUGAUGUUCAUGUCUAGACCAGCGUCUCUCACAGGUAGGUCGCACAUGAAAGG [Arg B SS t10] = condition not met
• AAAUUUUCAAGUGAUACCAGACAUUUUUAUUUCUUUAUUUAUGCUAAGUGAUGUUUAGCAGUCCCUUGGCAGCACUAUUUAAUUA [JR_Nu_SSTheophyB_Sub030] = condition not met
• UCCUUUGUUGCCAGUGAUGUUGGACAGGAAGGAGCGGGCAUAAGCCCAGGUAGGUCGCCUGUCAACUUUCUUAUAGCCCGAAGGU [KL-XArg-A19] = condition met

Please indicate if the recorded apparent KD of K4 kissing-loop reporter for UGACAUUGCUCAGAUACCAGACAUGAGCAUCAGCCAUGUACCAAGAAAGUACAAUAAAAUGUCCCUUGGCAGCUGAGCAAUGUCU [TheoBX 8] meets or exceeds 200 nM.
condition not met

Please indicate if the recorded apparent KD of K4 kissing-loop reporter for GAUGCCAUGAUCCUCCUGGUAUCGGGAGAUACCAGCGUGCUGACACGCCCUUGGCAGCUCCAUUCGAGAGUGAUGUUGUCGAGAA [KL-SSTheo-A8 #analogue] meets or exceeds 200 nM.
condition met

Please indicate if the recorded apparent KD of K4 kissing-loop reporter for AAAGGAUCAGAGAGUGAUGUUCUCUAAUAACGAGGACCGGUACGGCCGCCACUCGAAUAGAUCCAAGUCCUACGAAAAGUAGGAC [Omei inspired 8] meets or exceeds 200 nM.
condition met
